Each entry below carries its reported pIC50.
system: Mycobacterium tuberculosis; test: In vitro inhibitory concentration against Mycobacterium tuberculosis [H37Rv stain]; format: functional, organism-based
pIC50: −log10 of the molar value.

| Compound | pIC50 |
| --- | --- |
| NNC(=O)c1ccncc1 | < 4.34 |
| C/C(=N/NC(=O)c1ccncc1)c1cccc(CN(Cc2ccccc2)Cc2ccccc2)c1O | < 4.87 |
| CCn1cc(C(=O)O)c(=O)c2cc(F)c(N3CCN(Cc4cccc(/C(C)=N\NC(=O)c5ccncc5)c4O)C(C)C3)c(F)c21 (stereo not given) | < 5.00 |
| CCCCN(CCCC)Cc1cccc(/C(C)=N\NC(=O)c2ccncc2)c1O | < 4.80 |
| C/C(=N/NC(=O)c1ccncc1)c1cccc(CN2CCN(Cc3ccccc3)CC2)c1O | < 4.85 |
| C/C(=N/NC(=O)c1ccncc1)c1cccc(CN2CCNCC2)c1O | < 4.75 |
| C/C(=N/NC(=O)c1ccncc1)c1cccc(CN(c2ccccc2)c2ccccc2)c1O | < 4.84 |
| C/C(=N/NC(=O)c1ccncc1)c1cccc(CN2CCCCC2)c1O | < 4.75 |
| C/C(=N/NC(=O)c1ccncc1)c1cccc(CN2CCCC2)c1O | < 4.73 |
| C/C(=N/NC(=O)c1ccncc1)c1cccc(CN2CCOCC2)c1O | < 4.75 |
